Below: a set of entries, each annotated with reported Uptake.
# Test system: DU-145
# TEST METHOD NOTES: Cellular uptake of compound into DU145 tumor cells by laser scanning cytometry at a concentration of 10 uM
# Type: functional, cell-based
# MEASUREMENT PARAMETERS: Homo sapiens
READOUT: Uptake (%)

[[record]]
compound = "NCCCCC(CC(N)=O)NC(=O)CC(CCCCN)NC(=O)CC(CCCCN)NC(=O)CC(CCCCN)NC(=O)CC(CCCCN)NC(=O)CC(CCCCN)NC(=O)CC(CCCCN)NC(=O)COCCOCCNC(=O)c1ccccc1C1c2ccc(O)cc2Oc2cc(O)ccc21 (stereo not given)"
assay_target = "DU-145"
reported = 98.8

[[record]]
compound = "O=C1OC2(c3ccc(O)cc3Oc3cc(O)ccc32)c2ccccc21"
assay_target = "DU-145"
reported = 0.3

[[record]]
compound = "NCCCCC(CC(N)=O)NC(=O)CC(CCCCN)NC(=O)CC(CCCCN)NC(=O)CC(CCCCN)NC(=O)CC(CCCCN)NC(=O)COCCOCCNC(=O)c1ccccc1C1c2ccc(O)cc2Oc2cc(O)ccc21 (stereo not given)"
assay_target = "DU-145"
reported = 97.8

[[record]]
compound = "NCCCCC(CC(N)=O)NC(=O)CC(CCCCN)NC(=O)CC(CCCCN)NC(=O)CC(CCCCN)NC(=O)CC(CCCCN)NC(=O)CC(CCCCN)NC(=O)COCCOCCNC(=O)c1ccccc1C1c2ccc(O)cc2Oc2cc(O)ccc21 (stereo not given)"
assay_target = "DU-145"
reported = 94.9

[[record]]
compound = "NCCCCC(CC(N)=O)NC(=O)CC(CCCCN)NC(=O)CC(CCCCN)NC(=O)CC(CCCCN)NC(=O)CC(CCCCN)NC(=O)CC(CCCCN)NC(=O)CC(CCCCN)NC(=O)CC(CCCCN)NC(=O)COCCOCCNC(=O)c1ccccc1C1c2ccc(O)cc2Oc2cc(O)ccc21 (stereo not given)"
assay_target = "DU-145"
reported = 89.5

